Test system: Salmonella TA98
assayMethodText: Salmonella plate-incorporation mutagenicity assay, strain TA98, with S9 mix
Type: cell-based
experimentalContext: TA98 +S9, Test 1, 5 µg/plate; zero-dose 33/40/39
quantity: Rev/plate (rev/plate)
Give just the number in rev/plate; leave the unit off.

| molecule | unitDescriptor | Rev/plate |
| --- | --- | --- |
| O[C@@H]1C=Cc2c(ccc3ccc4sccc4c23)[C@H]1O (racemic) [P[3,4-b]T 8,9-diol] | rev/plate | 87 |
| c1ccc2c(c1)ccc1ccc3ccccc3c12 [B[c]P, Benzo[c]phenanthrene] | rev/plate | 43 |
| O[C@@H]1C=Cc2c(ccc3ccc4ccccc4c23)[C@H]1O (racemic) [B[c]P 3,4-diol] | rev/plate | 100 |
| O[C@@H]1c2ccccc2-c2c(ccc3sccc23)[C@H]1O (racemic) [P[3,4-b]T 6,7-diol] | rev/plate | 47 |
| c1ccc2c(c1)ccc1ccc3ccsc3c12 [P[4,3-b]T, Phenanthro[4,3-b]thiophene] | rev/plate | 137 |

Query: Indicate its recorded Rev/plate; the molecule in question is O[C@@H]1c2ccccc2-c2c(ccc3ccsc23)[C@H]1O (racemic) [P[4,3-b]T 6,7-diol]
Reply: 35

Query: Identify the reported Rev/plate for the following entry. O=S1(=O)C=Cc2c1ccc1ccc3ccccc3c21 [P[3,4-b]T sulfone, Phenanthro[3,4-b]thiophene sulfone]
Reply: 982

Query: Identify measured Rev/plate corresponding to c1ccc2c(c1)ccc1ccc3sccc3c12 [P[3,4-b]T, Phenanthro[3,4,-b]thiophene]
Reply: 80

Query: // fetch Rev/plate given entry O[C@@H]1c2ccccc2-c2c(ccc3ccccc23)[C@H]1O (racemic) [B[c]P 5,6-diol]
Reply: 41

Query: Could you please provide reported Rev/plate for O[C@@H]1C=Cc2c(ccc3ccc4ccsc4c23)[C@H]1O (racemic) [P[4,3-b]T 8,9-diol] ? Thanks!
Reply: 116

====

List of Rev/plate values.
Test system: Salmonella TA100
assayMethodText: Salmonella plate-incorporation mutagenicity assay, strain TA100
Type: cell-based
experimentalContext: TA100 +S9, Test 2, 1 µg/plate; zero-dose 84/78/80

Example entries and their recorded answers appear below.
| molecule | quantity | result |
| --- | --- | --- |
| O[C@@H]1C=Cc2c(ccc3ccc4ccsc4c23)[C@H]1O (racemic) [P[4,3-b]T 8,9-diol] | Rev/plate | 318/270 |
| c1ccc2c(c1)ccc1ccc3ccccc3c12 [B[c]P, Benzo[c]phenanthrene] | Rev/plate | 114/78 |
| c1ccc2c(c1)ccc1ccc3ccsc3c12 [P[4,3-b]T, Phenanthro[4,3-b]thiophene] | Rev/plate | 80/84 |
| O[C@@H]1C=Cc2c(ccc3ccc4sccc4c23)[C@H]1O (racemic) [P[3,4-b]T 8,9-diol] | Rev/plate | 140/116 |

Now let's try a different one.
Query: Answer with reported Rev/plate of O[C@@H]1C=Cc2c(ccc3ccc4ccccc4c23)[C@H]1O (racemic) [B[c]P 3,4-diol]
Reply: 244/241

====

Catalogue of Rev/plate values
Tested on: Salmonella TA98
assayMethodText: Salmonella plate-incorporation mutagenicity assay, strain TA98, with S9 mix
Format: cell-based
experimentalContext: TA98 +S9, Test 3, 10 µg/plate; zero-dose 49/50/50

| compound | result |
| --- | --- |
| O[C@@H]1C=Cc2c(ccc3ccc4ccsc4c23)[C@H]1O (racemic) [P[4,3-b]T 8,9-diol] | 251/249 |
| c1ccc2c(c1)ccc1ccc3ccsc3c12 [P[4,3-b]T, Phenanthro[4,3-b]thiophene] | 194/213 |
| O[C@@H]1c2ccccc2-c2c(ccc3ccccc23)[C@H]1O (racemic) [B[c]P 5,6-diol] | 51/47 |

Query: Fill in reported Rev/plate for this entry: O[C@@H]1c2ccccc2-c2c(ccc3ccsc23)[C@H]1O (racemic) [P[4,3-b]T 6,7-diol]
Reply: 43/47

Query: Item O[C@@H]1C=Cc2c(ccc3ccc4sccc4c23)[C@H]1O (racemic) [P[3,4-b]T 8,9-diol] : provide Rev/plate
Reply: 143/142

Query: // fetch Rev/plate given entry O[C@@H]1C=Cc2c(ccc3ccc4ccccc4c23)[C@H]1O (racemic) [B[c]P 3,4-diol]
Reply: 238/242
